study-system: Pim-1 stably transfected into the U2OS human osteogenic sarcoma line (Homo sapiens, UniProt P11309)
Construct: expressed in transfected cells; host or cells: U2OS human osteogenic sarcoma line
Sequence (P11309 whole entry): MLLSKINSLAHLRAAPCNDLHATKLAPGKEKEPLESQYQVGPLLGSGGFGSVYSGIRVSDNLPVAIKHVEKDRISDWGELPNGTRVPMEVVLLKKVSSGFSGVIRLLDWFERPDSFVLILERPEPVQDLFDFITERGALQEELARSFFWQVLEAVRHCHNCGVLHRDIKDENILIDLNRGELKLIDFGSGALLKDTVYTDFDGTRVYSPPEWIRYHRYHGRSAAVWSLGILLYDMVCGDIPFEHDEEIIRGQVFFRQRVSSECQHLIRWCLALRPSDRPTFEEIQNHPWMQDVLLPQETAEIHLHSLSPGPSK
test: Pim cell assay, phospho-BAD normalized against total BAD, U2OS stably transfected with Pim-1
Assay type: cell-based
test-settings: U2OS cells stably transfected with Pim-1, phospho-BAD; high dose […]; read-out: Pim1_Cell_IC50
experimental-readout: IC50 (µM)
Dear colleague, please return just the value in µM, with no unit written.

## Input Supply measured IC50 of COc1ccc(F)c(-c2ccc3[nH]nc(-c4cncc(N5CCC(N)CC5)n4)c3c2)c1 [Example 61] in your reply.
## Output 3.01

## Input Supply measured IC50 of N#Cc1ccccc1-c1ccc2[nH]nc(-c3cncc(N4CCC(N)CC4)n3)c2c1 [Example 60] in your reply.
## Output 0.419

## Input Supply measured IC50 of Fc1cccc(F)c1-c1ccc2[nH]cc(-c3cncc(N[C@@H]4CCCNC4)n3)c2c1 [Example 207] in your reply.
## Output 0.102

## Input Supply measured IC50 of Fc1cccc(F)c1-c1ccc2[nH]cc(-c3cncc(NC4CCCCC4)n3)c2c1 [Example 202] in your reply.
## Output 8.85
